# Test system: LAETG (Abz-LAETGK(Dnp)-CONH2)
# Assay protocol: In vitro sortase kinetics HPLC assay, LAETG substrate
# Type: biochemical
# Condition context: Example 5 variants; substrate 2A (LAETG)
Value kind: Avg kcat (Hz)
Could you give me the number in Hz? Just the number is fine.

Tell me measured Avg kcat (Hz) for eSrtA(2A-3): round 3 LAETG clone: eSrtA + K84R F122S D124G K134R K145E K162R V168I K177R I182F (protein) QAKPQIPKDKSKVAGYIEIPDADIREPVYPGPATREQLNRGVSFAEENESLDDQNISIAGHTSIGRPNYQFTNLRAAKKGSMVYFEVGNETRKYKMTSIRNVRPTAVEILDEQKGKDRQLTLFTCDDYNEETGVWETRKIFVATEVK please.
1.117
